experiment: Assessment of solubility: HT solubility in pION buffer, UV spectrophotometry; settings: pION system solution buffer, pH 7.4, pH 7.4, aqueous buffer, kinetic from dmso stock, Solubility (pH 7.4), pH 7.4 buffer, 16-19 h incubation, 1.0% DMSO
Experimental readout: solubility

query: Suppose we examine the molecule Cc1ccc(OCc2ccc(C(=O)N3CCCCC3)cc2C)c(-c2csc(N3C4CCC3CC(C(=O)O)C4)n2)c1 (centres unmarked) ; what solubility value has been reported?
result: > 55 µg/mL

query: Suppose we examine the molecule Cc1cc(CN2CCS(=O)(=O)CC2)ccc1COc1ccc(Cl)cc1-c1csc(N2C3CCC2CC(C(=O)O)C3)n1 (centres unmarked) ; what solubility value has been reported?
result: 30 µg/mL

query: Suppose we examine the molecule Cc1cc(CN2CCS(=O)(=O)CC2)ccc1COc1ccc(F)cc1-c1csc(N2CC3C(C2)C3C(=O)O)n1 (centres unmarked) ; what solubility value has been reported?
result: > 57 µg/mL

query: Suppose we examine the molecule "Cc1ccc(OCc2ccc(C(=O)N(C)CC(C)(C)CO)cc2C)c(-c2csc(N3C[C@H]4CC[C@@H](C3)[C@H]4C(=O)O)n2)c1" ; what solubility value has been reported?
result: > 54 µg/mL

query: Suppose we examine the molecule Cc1cc(CN2CCS(=O)(=O)CC2)ccc1COc1ccc(F)cc1-c1csc(N2CCC(C(=O)O)C(C(F)(F)F)C2)n1 (centres unmarked) ; what solubility value has been reported?
result: > 63 µg/mL

query: Suppose we examine the molecule "Cc1cc(C(=O)N2CCCCC2)ccc1COc1ccccc1-c1csc([C@H]2CC[C@@H](C(=O)O)CC2)n1" ; what solubility value has been reported?
result: > 51 µg/mL

query: Suppose we examine the molecule "Cc1ccc(OCc2ccc(CN3CCOCC3)cc2C)c(-c2csc(N[C@H]3CC[C@@H](C(=O)O)C3)n2)c1" ; what solubility value has been reported?
result: > 52 µg/mL

query: Suppose we examine the molecule "Cc1cc(CN2CCC(O)CC2)ccc1COc1c(C)cccc1-c1csc(N2CCC(C(=O)O)CC2)n1" ; what solubility value has been reported?
result: 16 µg/mL

query: Suppose we examine the molecule Cc1cc(C(=O)N2CCCCC2)ccc1COc1ccc(F)cc1-c1csc(N2CCC(C(=O)O)C(C(F)(F)F)C2)n1 (centres unmarked) ; what solubility value has been reported?
result: > 60 µg/mL

query: Suppose we examine the molecule "COCCNCc1ccc(COc2ccc(C#N)cc2-c2csc(N3CCC(C(=O)O)CC3)n2)c(C)c1" ; what solubility value has been reported?
result: > 63 µg/mL

query: Suppose we examine the molecule Cc1cc(CN2CCS(=O)(=O)CC2)ccc1COc1ccc(Cl)cc1-c1csc(N2CC3C(C2)C3C(=O)O)n1 (centres unmarked) ; what solubility value has been reported?
result: > 58 µg/mL

query: Suppose we examine the molecule Cc1cc(C(=O)N2CCCCC2)ccc1COc1ccccc1-c1csc(N2CCC(C(=O)O)CC2C(F)(F)F)n1 (centres unmarked) ; what solubility value has been reported?
result: > 58 µg/mL

query: Suppose we examine the molecule Cc1cc(CN2CCS(=O)(=O)CC2)ccc1COc1ccc(C#N)cc1-c1csc(N2C3CCC2CC(C(=O)O)C3)n1 (centres unmarked) ; what solubility value has been reported?
result: > 60 µg/mL

query: Suppose we examine the molecule Cc1ccc(OCc2ccc(CN3CCS(=O)(=O)CC3)cc2C)c(-c2csc(N3CCC(C(=O)O)C(C)C3)n2)c1 (centres unmarked) ; what solubility value has been reported?
result: 54 µg/mL
